Experiment: Cytotoxicity against HEK293 cells assessed as inhibition of cell growth incubated for 48 hrs by MTT assay
Format: toxicity, cell-based
Settings: human
Kindly state log10 IC50 at 48 h for each of the entries shown.
Plainly stated, the numbers are log10 of IC50 at 48 h given in µM.

Sample "O=C(CN1C(=O)S/C(=C\c2coc3ccccc3c2=O)C1=O)c1ccccc1" ; log10 IC50 at 48 h observed: 1.24

Sample "N#Cc1ccc(C(=O)CN2C(=O)S/C(=C\c3coc4ccccc4c3=O)C2=O)cc1" ; log10 IC50 at 48 h observed: 1.44

Sample "Cc1ccc(C(=O)CN2C(=O)S/C(=C\c3coc4ccccc4c3=O)C2=O)cc1" ; log10 IC50 at 48 h observed: 1.45

Sample "O=C(CN1C(=O)S/C(=C\c2coc3cc(Br)ccc3c2=O)C1=O)c1ccc(Cl)cc1" ; log10 IC50 at 48 h observed: 1.26

Sample "COc1ccc(C(=O)CN2C(=O)S/C(=C\c3coc4ccccc4c3=O)C2=O)cc1" ; log10 IC50 at 48 h observed: 2.23

Sample "O=C(CN1C(=O)S/C(=C\c2coc3cc(F)ccc3c2=O)C1=O)c1ccc(Cl)cc1" ; log10 IC50 at 48 h observed: 1.13

Sample "COc1ccc(C(=O)CN2C(=O)S/C(=C\c3coc4cc(Br)ccc4c3=O)C2=O)cc1" ; log10 IC50 at 48 h observed: 1.15

Sample "O=C(CN1C(=O)S/C(=C\c2coc3ccccc3c2=O)C1=O)c1ccc(Cl)c(Cl)c1" ; log10 IC50 at 48 h observed: 1.29

Sample "Cc1ccc2occ(/C=C3\SC(=O)N(CC(=O)c4ccccc4)C3=O)c(=O)c2c1" ; log10 IC50 at 48 h observed: 1.13

Sample "O=C(CN1C(=O)S/C(=C\c2coc3ccccc3c2=O)C1=O)c1ccc(Cl)cc1" ; log10 IC50 at 48 h observed: 1.40

Sample "Cc1ccc2occ(/C=C3\SC(=O)N(CC(=O)c4ccc(Br)cc4)C3=O)c(=O)c2c1" ; log10 IC50 at 48 h observed: 1.22

Sample "O=C(CN1C(=O)S/C(=C\c2coc3cc(Br)ccc3c2=O)C1=O)c1ccc(Br)cc1" ; log10 IC50 at 48 h observed: 1.37

Sample "Cc1ccc2occ(/C=C3\SC(=O)N(CC(=O)c4ccc(Cl)cc4)C3=O)c(=O)c2c1" ; log10 IC50 at 48 h observed: 1.18

Sample "O=C(CN1C(=O)S/C(=C\c2coc3ccc(Br)cc3c2=O)C1=O)c1ccccc1" ; log10 IC50 at 48 h observed: 1.12

Sample "Cc1ccc(C(=O)CN2C(=O)S/C(=C\c3coc4cc(Br)ccc4c3=O)C2=O)cc1" ; log10 IC50 at 48 h observed: 1.18

Sample "O=C(CN1C(=O)S/C(=C\c2coc3ccccc3c2=O)C1=O)c1ccc(Br)cc1" ; log10 IC50 at 48 h observed: 1.32

Sample "O=C(CN1C(=O)S/C(=C\c2coc3cc(Br)ccc3c2=O)C1=O)c1ccccc1" ; log10 IC50 at 48 h observed: 1.32

Sample "O=C(CN1C(=O)S/C(=C\c2coc3ccccc3c2=O)C1=O)c1ccc(F)cc1" ; log10 IC50 at 48 h observed: 1.19

Sample "Cc1ccc(C(=O)CN2C(=O)S/C(=C\c3coc4cc(F)ccc4c3=O)C2=O)cc1" ; log10 IC50 at 48 h observed: 1.22

Sample "Cc1ccc2occ(/C=C3\SC(=O)N(CC(=O)c4ccc(F)cc4)C3=O)c(=O)c2c1" ; log10 IC50 at 48 h observed: 1.18

Sample "Cc1ccc(C(=O)CN2C(=O)S/C(=C\c3coc4ccc(C)cc4c3=O)C2=O)cc1" ; log10 IC50 at 48 h observed: 1.15
